tested on: F1*sub RNA substrate (template-directed ligation); experiment: fraction ligated after 30 min (ligated reads / total reads); higher = more ligase activity; sequences stand for … in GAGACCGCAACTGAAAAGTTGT…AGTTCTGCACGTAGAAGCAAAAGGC; settings: 42 °C
Entries and their fraction ligated
Assay metric: fraction ligated

[[record]]
macromolecule_sequence = "TATCACTTGTCGTAGAACTTTGGATGGGTTA [3d2019]"
assay_metric = "fraction ligated"
reported = 0.854

[[record]]
macromolecule_sequence = "TAACTTGTCGTAAGACACTTTGGATGGTTGA [3d525]"
assay_metric = "fraction ligated"
reported = 0.309

[[record]]
macromolecule_sequence = "TATACTGTCGTAAGACACTTGGATGGGTTGA [3d789]"
assay_metric = "fraction ligated"
reported = 0.803

[[record]]
macromolecule_sequence = "TATCACGTCGTAAGACCTTTGGATGGGTTGA [3d1302]"
assay_metric = "fraction ligated"
reported = 0.786

[[record]]
macromolecule_sequence = "TATCACTTGTCTAGAACTTTGGATGGGTTGA [3d1826]"
assay_metric = "fraction ligated"
reported = 0.796

[[record]]
macromolecule_sequence = "TATCATTGTCGTAAGCATTTGGATGGGTTGA [3d1239]"
assay_metric = "fraction ligated"
reported = 0.796

[[record]]
macromolecule_sequence = "TATACTTGTCGTAAGACACTTTATGGGTTGA [3d932]"
assay_metric = "fraction ligated"
reported = 0.0481

[[record]]
macromolecule_sequence = "TATCACTTGCGTAAGACACTTTGAGGGTTGA [3d1690]"
assay_metric = "fraction ligated"
reported = 0.0844

[[record]]
macromolecule_sequence = "TATCCTTGTCGTAAGACATTTGGATGGGTTA [3d1095]"
assay_metric = "fraction ligated"
reported = 0.455

[[record]]
macromolecule_sequence = "TATCACTTGTCTAAGAACTTTGGATGGGTTG [3d1863]"
assay_metric = "fraction ligated"
reported = 0.782

[[record]]
macromolecule_sequence = "TTACTTGTCGTAAGACACTTTGGAGGGTTGA [3d294]"
assay_metric = "fraction ligated"
reported = 0.125

[[record]]
macromolecule_sequence = "TATCACTGTCTAAGACACTTTGGATGGTTGA [3d1369]"
assay_metric = "fraction ligated"
reported = 0.239

[[record]]
macromolecule_sequence = "TATCATTTCGTAAACACTTTGGATGGGTTGA [3d1144]"
assay_metric = "fraction ligated"
reported = 0.806

[[record]]
macromolecule_sequence = "TATACTTTCGTAAGACACTTTGGATGGGTTGA [2d72]"
assay_metric = "fraction ligated"
reported = 0.542

[[record]]
macromolecule_sequence = "TATCCTTTCGTAAGACACTTTGATGGGTTGA [3d978]"
assay_metric = "fraction ligated"
reported = 0.77

[[record]]
macromolecule_sequence = "TATCACTTGTCGTAAACATTTGATGGGTTGA [3d2075]"
assay_metric = "fraction ligated"
reported = 0.384

[[record]]
macromolecule_sequence = "TATCACTTGTGTAAGACACTTTGGATGGGTTA [2d192]"
assay_metric = "fraction ligated"
reported = 0.823

[[record]]
macromolecule_sequence = "ATCACTTGTCGTAAGACACTTTGGATGGGTTGA [1d1]"
assay_metric = "fraction ligated"
reported = 0.781

[[record]]
macromolecule_sequence = "TATCCTTGTCTAAGACACTTTGGATGGGTTG [3d1028]"
assay_metric = "fraction ligated"
reported = 0.773

[[record]]
macromolecule_sequence = "TATCACTTGTGAAGACACTTTGGATGGGTTG [3d1730]"
assay_metric = "fraction ligated"
reported = 0.854

[[record]]
macromolecule_sequence = "TATACTTGTGTAAGAACTTTGGATGGGTTGA [3d833]"
assay_metric = "fraction ligated"
reported = 0.814

[[record]]
macromolecule_sequence = "ACCTTGTCGTAAGACACTTTGGATGGGTTGA [3d25]"
assay_metric = "fraction ligated"
reported = 0.616

[[record]]
macromolecule_sequence = "TATCCTGTCGTAAGACACTTTGGTGGGTTGA [3d963]"
assay_metric = "fraction ligated"
reported = 0.274

[[record]]
macromolecule_sequence = "TATCACTGTCGTAAGACACTTTGGATGGGTTA [2d145]"
assay_metric = "fraction ligated"
reported = 0.773


###

Entries and their fraction ligated
system: F1*sub RNA substrate (template-directed ligation); assay: fraction ligated after 30 min (ligated reads / total reads); higher = more ligase activity; sequences stand for … in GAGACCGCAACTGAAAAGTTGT…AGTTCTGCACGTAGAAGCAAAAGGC; details: 42 °C
Assay metric: fraction ligated

[[record]]
macromolecule_sequence = "TTCACTTTCGTAAGACACTTTGATGGGTTGA [3d365]"
target = "F1*sub RNA substrate (template-directed ligation)"
reported = 0.0352

[[record]]
macromolecule_sequence = "TATCACTTGTCGTAAGACATTTGGATGGGTTG [2d275]"
target = "F1*sub RNA substrate (template-directed ligation)"
reported = 0.828

[[record]]
macromolecule_sequence = "TACACTTGTCGTAAGACCTTTGGATGGGTTG [3d706]"
target = "F1*sub RNA substrate (template-directed ligation)"
reported = 0.659

[[record]]
macromolecule_sequence = "ATCATTGTCGTAAACACTTTGGATGGGTTGA [3d93]"
target = "F1*sub RNA substrate (template-directed ligation)"
reported = 0.77

[[record]]
macromolecule_sequence = "TATCACTTGCTAAACACTTTGGATGGGTTGA [3d1601]"
target = "F1*sub RNA substrate (template-directed ligation)"
reported = 0.777

[[record]]
macromolecule_sequence = "TACACTTTCGTAAGACACTTTGGTGGGTTGA [3d596]"
target = "F1*sub RNA substrate (template-directed ligation)"
reported = 0.0156


###

test system: F1*sub RNA substrate (template-directed ligation); assay: fraction ligated after 30 min (ligated reads / total reads); higher = more ligase activity; sequences stand for … in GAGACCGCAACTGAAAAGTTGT…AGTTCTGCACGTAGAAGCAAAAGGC; conditions: 42 °C
Entries and their fraction ligated
Assay metric: fraction ligated

[[record]]
macromolecule_sequence = "TATACTGTCGTAAGACACTTTGGATGGGTTGA [2d71]"
target = "F1*sub RNA substrate (template-directed ligation)"
reported = 0.797

[[record]]
macromolecule_sequence = "TATACTTGTCGTAAGCACTTTGGATGGGTTGA [2d79]"
target = "F1*sub RNA substrate (template-directed ligation)"
reported = 0.778

[[record]]
macromolecule_sequence = "ATCACTTTCTAAGACACTTTGGATGGGTTGA [3d125]"
target = "F1*sub RNA substrate (template-directed ligation)"
reported = 0.753

[[record]]
macromolecule_sequence = "ATCATTGTCTAAGACACTTTGGATGGGTTGA [3d90]"
target = "F1*sub RNA substrate (template-directed ligation)"
reported = 0.663

[[record]]
macromolecule_sequence = "TATCATTGCGTAAGACACTTTGGTGGGTTGA [3d1167]"
target = "F1*sub RNA substrate (template-directed ligation)"
reported = 0.0667

[[record]]
macromolecule_sequence = "ATCACTTGTCTAAGACACTTTGATGGGTTGA [3d179]"
target = "F1*sub RNA substrate (template-directed ligation)"
reported = 0.594

[[record]]
macromolecule_sequence = "TATCACTTGCGTAAGACACTTGGATGGTTGA [3d1685]"
target = "F1*sub RNA substrate (template-directed ligation)"
reported = 0.152

[[record]]
macromolecule_sequence = "TATCCTTGTCGTAAGACACTTTGGATGGTTG [3d1118]"
target = "F1*sub RNA substrate (template-directed ligation)"
reported = 0.0169

[[record]]
macromolecule_sequence = "TACACTTGTCTAAGACACTTTGGATGGTTGA [3d643]"
target = "F1*sub RNA substrate (template-directed ligation)"
reported = 0.449

[[record]]
macromolecule_sequence = "TATCACTTGTCGTAAGACCTTTGGAGGGTTGA [2d265]"
target = "F1*sub RNA substrate (template-directed ligation)"
reported = 0.072

[[record]]
macromolecule_sequence = "TATCACTTGTCGAAACATTTGGATGGGTTGA [3d1917]"
target = "F1*sub RNA substrate (template-directed ligation)"
reported = 0.821

[[record]]
macromolecule_sequence = "ATCACTTTCGTAAGACATTTGGATGGGTTGA [3d132]"
target = "F1*sub RNA substrate (template-directed ligation)"
reported = 0.781

[[record]]
macromolecule_sequence = "TATCACTTGCGTAAGCACTTGGATGGGTTGA [3d1652]"
target = "F1*sub RNA substrate (template-directed ligation)"
reported = 0.792

[[record]]
macromolecule_sequence = "TATCACTTGTCGTAAGCCTTGGATGGGTTGA [3d2114]"
target = "F1*sub RNA substrate (template-directed ligation)"
reported = 0.778

[[record]]
macromolecule_sequence = "TATCACTTGTGAAGACACTTTGATGGGTTGA [3d1725]"
target = "F1*sub RNA substrate (template-directed ligation)"
reported = 0.818

[[record]]
macromolecule_sequence = "TATCATTGTGTAAGACCTTTGGATGGGTTGA [3d1178]"
target = "F1*sub RNA substrate (template-directed ligation)"
reported = 0.875

[[record]]
macromolecule_sequence = "TATCACTTTCGTAAACACTTTGGATGGTTGA [3d1526]"
target = "F1*sub RNA substrate (template-directed ligation)"
reported = 0.0497

[[record]]
macromolecule_sequence = "TATCACTTGTCTAAGCACTTTGGTGGGTTGA [3d1851]"
target = "F1*sub RNA substrate (template-directed ligation)"
reported = 0.108

[[record]]
macromolecule_sequence = "TATCACTTGTCGTAGCCTTTGGATGGGTTGA [3d2004]"
target = "F1*sub RNA substrate (template-directed ligation)"
reported = 0.768

[[record]]
macromolecule_sequence = "TATCACTTTCGTAAGCATTTGGATGGGTTGA [3d1531]"
target = "F1*sub RNA substrate (template-directed ligation)"
reported = 0.791

[[record]]
macromolecule_sequence = "TATCACTTGTCGTAAAACTTTGGTGGGTTGA [3d2062]"
target = "F1*sub RNA substrate (template-directed ligation)"
reported = 0.0841

[[record]]
macromolecule_sequence = "TATCACTTGTGTAAGACACTTGGTGGGTTGA [3d1788]"
target = "F1*sub RNA substrate (template-directed ligation)"
reported = 0.0212

[[record]]
macromolecule_sequence = "TTCACTGTCGTAAGACACTTTGGATGGGTTA [3d353]"
target = "F1*sub RNA substrate (template-directed ligation)"
reported = 0.195

[[record]]
macromolecule_sequence = "TATCCTTGTCGTGACACTTTGGATGGGTTGA [3d1042]"
target = "F1*sub RNA substrate (template-directed ligation)"
reported = 0.798

[[record]]
macromolecule_sequence = "TATCACTTGCGTAAACCTTTGGATGGGTTGA [3d1640]"
target = "F1*sub RNA substrate (template-directed ligation)"
reported = 0.821

[[record]]
macromolecule_sequence = "TATCATTGTCGTAGACATTTGGATGGGTTGA [3d1219]"
target = "F1*sub RNA substrate (template-directed ligation)"
reported = 0.809

[[record]]
macromolecule_sequence = "TATCACTTGTCGTAAACATTTGGATGGGTTA [3d2079]"
target = "F1*sub RNA substrate (template-directed ligation)"
reported = 0.822

[[record]]
macromolecule_sequence = "TATCACTGTCGTAAGACACTTGGATGGGTTA [3d1445]"
target = "F1*sub RNA substrate (template-directed ligation)"
reported = 0.775

[[record]]
macromolecule_sequence = "TTCACTTGTCGAAGACACTTTGGAGGGTTGA [3d425]"
target = "F1*sub RNA substrate (template-directed ligation)"
reported = 0.157

[[record]]
macromolecule_sequence = "TATCACTTGCGTAGACATTTGGATGGGTTGA [3d1631]"
target = "F1*sub RNA substrate (template-directed ligation)"
reported = 0.821

[[record]]
macromolecule_sequence = "TATCCTTGTCGAAGACACTTTGGATGGGTTG [3d1041]"
target = "F1*sub RNA substrate (template-directed ligation)"
reported = 0.783

[[record]]
macromolecule_sequence = "TATCACTTGTCGTAAGACTTGGATGGGTTGA [3d2107]"
target = "F1*sub RNA substrate (template-directed ligation)"
reported = 0.771

[[record]]
macromolecule_sequence = "TATCACTGTCTAGACACTTTGGATGGGTTGA [3d1359]"
target = "F1*sub RNA substrate (template-directed ligation)"
reported = 0.822

[[record]]
macromolecule_sequence = "ATCCTTGTCGTAAGAACTTTGGATGGGTTGA [3d76]"
target = "F1*sub RNA substrate (template-directed ligation)"
reported = 0.719

[[record]]
macromolecule_sequence = "TACCTTGTCTAAGACACTTTGGATGGGTTGA [3d532]"
target = "F1*sub RNA substrate (template-directed ligation)"
reported = 0.685

[[record]]
macromolecule_sequence = "TACACTTGTGTAAGACACTTGGATGGGTTGA [3d625]"
target = "F1*sub RNA substrate (template-directed ligation)"
reported = 0.0347

[[record]]
macromolecule_sequence = "TTCATTGTGTAAGACACTTTGGATGGGTTGA [3d320]"
target = "F1*sub RNA substrate (template-directed ligation)"
reported = 0.137

[[record]]
macromolecule_sequence = "TATCACTTGCGTAGACACTTGGATGGGTTGA [3d1632]"
target = "F1*sub RNA substrate (template-directed ligation)"
reported = 0.779

[[record]]
macromolecule_sequence = "TATACTTGTCGTAAGACACTTGATGGGTTGA [3d926]"
target = "F1*sub RNA substrate (template-directed ligation)"
reported = 0.765

[[record]]
macromolecule_sequence = "TACACTTGTCGTAAGACACTTTGGAGGGTTG [3d733]"
target = "F1*sub RNA substrate (template-directed ligation)"
reported = 0.0821

[[record]]
macromolecule_sequence = "TCACTTTCGTAAGACACTTTGGATGGGTTGA [3d6]"
target = "F1*sub RNA substrate (template-directed ligation)"
reported = 0.145

[[record]]
macromolecule_sequence = "TATCACTTGTGTAAGACCTTTGGTGGGTTGA [3d1774]"
target = "F1*sub RNA substrate (template-directed ligation)"
reported = 0.157

[[record]]
macromolecule_sequence = "ATCACTTGTCGTAAGACACTTTGGGGGTTGA [3d266]"
target = "F1*sub RNA substrate (template-directed ligation)"
reported = 0.0143

[[record]]
macromolecule_sequence = "TTCACTTGTCGTAAGCATTTGGATGGGTTGA [3d454]"
target = "F1*sub RNA substrate (template-directed ligation)"
reported = 0.769

[[record]]
macromolecule_sequence = "ATCACTTGTCGTAACACTTTGGATGGGTTGA [3d199]"
target = "F1*sub RNA substrate (template-directed ligation)"
reported = 0.779

[[record]]
macromolecule_sequence = "TATCACTTGTCGTAAGAACTTTGATGGTTGA [3d2169]"
target = "F1*sub RNA substrate (template-directed ligation)"
reported = 0.0458

[[record]]
macromolecule_sequence = "TATCCTTGTGTAAGACACTTTGGATGGGTTGA [2d93]"
target = "F1*sub RNA substrate (template-directed ligation)"
reported = 0.792

